Cited source for all entries: patent US20080200473A1

- System: α1-GABAA receptor
- measurement.protocol: Ligand-binding assay, competitive with radiolabeled flumazenil, cerebellum membranes
- run.conditions: Affinity for α1-GABAA receptor; 10^-5M test compound; rat cerebellum membranes; radiolabeled flumazenil 1 nM
Provide the reported % Inhibition 10^−5M of each item.
Give bare numbers, in %.

Consider the reported % Inhibition 10^−5M for these compounds:
> print(dat)
                            chemical.smiles  system.under.test    measured.endpoint  unit.name  value.reported
1  Cc1ccc(-c2nc3ccc(C)cn3c2CN(C)C(=O)C2CC2)cc1  α1-GABAA receptor  % Inhibition 10^−5M          %            99.8
2  Cc1ccc(-c2nc3ccc(C)cn3c2CNC(=O)c2cnccn2)cc1  α1-GABAA receptor  % Inhibition 10^−5M          %           100.3

I have 2 compounds here; please give me % Inhibition 10^−5M for each one.
1. Cc1ccc(-c2nc3ccc(C)cn3c2CNC(=O)c2occc2C)cc1
2. Cc1ccc(-c2nc3ccc(C)cn3c2CNC(=O)c2cc(C)n(C)n2)cc1

### Response
74.5
99.6

---

Provide the reported % Inhibition 10^−7M of each item.
- Test system: α1-GABAA receptor
- measurement.protocol: Ligand-binding assay, competitive with radiolabeled flumazenil, cerebellum membranes
- run.conditions: Affinity for α1-GABAA receptor; 10^-7M test compound; rat cerebellum membranes; radiolabeled flumazenil 1 nM
Numbers only, in %.

> print(dat)
                                   compound  value.reported
1  Cc1ccc(-c2nc3ccc(C)cn3c2CNC(=O)c2ccco2)cc1 [Example 4]            19.4
2  Cc1ccc(-c2nc3ccc(C)cn3c2CC(=O)N(C)C)cc1 [Zolpidem, reference compound]            73.6
3  Cc1ccc(-c2nc3ccc(C)cn3c2CN(C)C(=O)c2ccc([N+](=O)[O-])o2)cc1 [Example 32]            14.5

I have 6 compounds here; please give me % Inhibition 10^−7M for each one.
1. Cc1ccc(-c2nc3ccc(C)cn3c2CN(C)C(=O)c2ccnc(Cl)c2)cc1 [Example 34]
2. Cc1ccc(-c2nc3ccc(C)cn3c2CN(C)C(=O)c2ccc(N(C)C)cc2)cc1 [Example 22]
3. Cc1ccc(-c2nc3ccc(C)cn3c2CNC(=O)/C=C/c2ccco2)cc1 [Example 80]
4. COc1ccc(C(=O)NCc2c(-c3ccc(C)cc3)nc3ccc(C)cn23)cc1 [Example 11]
5. Cc1ccc(-c2nc3ccc(C)cn3c2CNC(=O)c2ccc([N+](=O)[O-])o2)cc1 [Example 14]
6. Cc1ccc(-c2nc3ccc(C)cn3c2CN(C)C(=O)c2ccccn2)cc1 [Example 28]

### Response
1. 39.6
2. 62.3
3. 0.0
4. 29.0
5. 51.4
6. 73.3

---

- System: α2-GABAA receptor
- measurement.protocol: Ligand-binding assay, competitive with radiolabeled flumazenil, spinal cord membranes
- run.conditions: Affinity for α2-GABAA receptor; 10^-7M test compound; rat spinal cord membranes; radiolabeled flumazenil 1 nM
Provide the reported % Inhibition 10^−7M of each item.

Consider the reported % Inhibition 10^−7M for these molecules:
> print(dat)
                            chemical.smiles    measured.endpoint  value.reported
1  Cc1ccc(-c2nc3ccc(C)cn3c2CNC(=O)c2ccco2)cc1  % Inhibition 10^−7M            0.0%
2  Cc1ccc(-c2nc3ccc(C)cn3c2CN(C)C(=O)c2ccc3ccccc3n2)cc1  % Inhibition 10^−7M            0.0%
3  Cc1ccc(-c2nc3ccc(C)cn3c2CNC(=O)c2cc(C)n(C)n2)cc1  % Inhibition 10^−7M           47.3%
4  Cc1ccc(-c2nc3ccc(C)cn3c2CNC(=O)C2=NNC(=O)CC2)cc1  % Inhibition 10^−7M           39.1%

I have 5 molecules here; please give me % Inhibition 10^−7M for each one.
1. Cc1ccc(-c2nc3ccc(C)cn3c2CNC(=O)c2ccc([N+](=O)[O-])o2)cc1
2. COc1ccc2nc(C(=O)NCc3c(-c4ccc(C)cc4)nc4ccc(C)cn34)sc2c1
3. C#CCN(Cc1c(-c2ccc(C)cc2)nc2ccc(C)cn12)C(=O)C1CC1
4. Cc1ccc(-c2nc3ccc(C)cn3c2CNC(=O)c2ccc(C)n2C)cc1
5. Cc1ccc(-c2nc3ccc(C)cn3c2CNC(=O)C2CC2)cc1

### Response
1. 26.2%
2. 0.0%
3. 0.0%
4. 0.0%
5. 0.0%

---

Provide the reported % Inhibition 10^−5M of each item.
- System: α2-GABAA receptor
- measurement.protocol: Ligand-binding assay, competitive with radiolabeled flumazenil, spinal cord membranes
- run.conditions: Affinity for α2-GABAA receptor; 10^-5M test compound; rat spinal cord membranes; radiolabeled flumazenil 1 nM
One number for each entry, in %.

Consider the reported % Inhibition 10^−5M for these compounds:
> print(dat)
                                   compound    measured.endpoint  value.reported
1  Cc1ccc(-c2nc3ccc(C)cn3c2CNC(=O)C2CC2)cc1 [Example 13]  % Inhibition 10^−5M            67.8
2  Cc1ccc(-c2nc3ccc(C)cn3c2CNC(=O)c2csc(C)n2)cc1 [Example 69]  % Inhibition 10^−5M            98.8

### Prompt Could you share which % Inhibition 10^−5M value was measured for Cc1ccc(-c2nc3ccc(C)cn3c2CN(C)C(=O)c2ccc([N+](=O)[O-])cc2)cc1 [Example 31] ?
### Response 38.8

---

- Test system: α1-GABAA receptor
- measurement.protocol: Ligand-binding assay, competitive with radiolabeled flumazenil, cerebellum membranes
- run.conditions: Affinity for α1-GABAA receptor; 10^-5M test compound; rat cerebellum membranes; radiolabeled flumazenil 1 nM
Provide the reported % Inhibition 10^−5M of each item.
Give bare numbers, in %.

> print(dat)
                                   compound  unit.name  value.reported
1  Cc1ccc(-c2nc3ccc(C)cn3c2CNC(=O)c2csnn2)cc1 [Example 70]          %           100.4
2  Cc1ccc(-c2nc3ccc(C)cn3c2CNC(=O)c2csc([N+](=O)[O-])c2)cc1 [Example 88]          %            96.2
3  Cc1ccc(-c2nc3ccc(C)cn3c2CNC(=O)c2ncc(F)cc2F)cc1 [Example 20]          %            99.8
4  COc1ccc2nc(C(=O)NCc3c(-c4ccc(C)cc4)nc4ccc(C)cn34)sc2c1 [Example 21]          %            67.9
5  Cc1ccc(-c2nc3ccc(C)cn3c2CN(C)C(=O)c2ncc(F)cc2F)cc1 [Example 33]          %            98.4

I have 3 compounds here; please give me % Inhibition 10^−5M for each one.
1. Cc1ccc(-c2nc3ccc(C)cn3c2CNC(=O)c2cnc(C)cn2)cc1 [Example 61]
2. Cc1ccc(-c2nc3ccc(C)cn3c2CNC(=O)c2ccc3ccccc3n2)cc1 [Example 19]
3. Cc1ccc(-c2nc3ccc(C)cn3c2CNC(=O)c2ccsc2)cc1 [Example 82]

### Response
[100.0, 95.5, 98.7]

I have 8 compounds here; please give me % Inhibition 10^−5M for each one.
1. CC(=O)c1ccc(C(=O)NCc2c(-c3ccc(C)cc3)nc3ccc(C)cn23)cc1 [Example 12]
2. C#CCN(Cc1c(-c2ccc(C)cc2)nc2ccc(C)cn12)C(=O)C1CC1 [Example 42]
3. Cc1ccc(-c2nc3ccc(C)cn3c2CNC(=O)c2ccc(N(C)C)cc2)cc1 [Example 3]
4. Cc1ccc(-c2nc3ccc(C)cn3c2CNC(=O)/C=C/c2ccco2)cc1 [Example 80]
5. Cc1ccc(-c2nc3ccc(C)cn3c2CN(C)C(=O)c2ccc(N(C)C)cc2)cc1 [Example 22]
6. Cc1ccc(-c2nc3ccc(C)cn3c2CN(C)C(=O)c2ccnc(Cl)c2)cc1 [Example 34]
7. Cc1ccc(-c2nc3ccc(C)cn3c2CNC(=O)c2ccc(C)n2C)cc1 [Example 6]
8. Cc1ccc(-c2nc3ccc(C)cn3c2CN(C)C(=O)c2cnoc2C)cc1 [Example 99]

### Response
[73.7, 92.7, 73.9, 88.9, 84.8, 98.8, 96.1, 99.2]

I have 2 compounds here; please give me % Inhibition 10^−5M for each one.
1. Cc1ccc(-c2nc3ccc(C)cn3c2CNC(=O)C2CC2)cc1 [Example 13]
2. Cc1ccc(-c2nc3ccc(C)cn3c2CN(C)C(=O)c2ccc([N+](=O)[O-])o2)cc1 [Example 32]

### Response
97.6
98.0

---

- Tested on: α2-GABAA receptor
- measurement.protocol: Ligand-binding assay, competitive with radiolabeled flumazenil, spinal cord membranes
- run.conditions: Affinity for α2-GABAA receptor; 10^-7M test compound; rat spinal cord membranes; radiolabeled flumazenil 1 nM
measured.endpoint: % Inhibition 10^−7M (%)
Give bare numbers, in %.

Consider the reported % Inhibition 10^−7M for these compounds:
> print(dat)
                            chemical.smiles  unit.name  value.reported
1  Cc1ccc(-c2nc3ccc(C)cn3c2CNC(=O)c2cnc(C)cn2)cc1          %            48.3
2  Cc1ccc(-c2nc3ccc(C)cn3c2CN(C)C(=O)c2ccc([N+](=O)[O-])o2)cc1          %             0.0
3  Cc1ccc(-c2nc3ccc(C)cn3c2CN(C)C(=O)c2ccnc(Cl)c2)cc1          %             0.0
4  Cc1ccc(-c2nc3ccc(C)cn3c2CNC(=O)c2csnn2)cc1          %            25.6
5  Cc1ccc(-c2nc3ccc(C)cn3c2CN(C)C(=O)c2cscn2)cc1          %            33.2

I have 4 compounds here; please give me % Inhibition 10^−7M for each one.
1. Cc1ccc(-c2nc3ccc(C)cn3c2CNC(=O)c2cccnc2)cc1
2. CC(=O)c1ccc(C(=O)NCc2c(-c3ccc(C)cc3)nc3ccc(C)cn23)cc1
3. COc1ccc(C(=O)NCc2c(-c3ccc(C)cc3)nc3ccc(C)cn23)cc1
4. Cc1ccc(-c2nc3ccc(C)cn3c2CNC(=O)c2ccc(N(C)C)cc2)cc1

### Response
1. 13.4
2. 0.0
3. 0.0
4. 0.0
